test-target: UniProt Q86VL8
experiment-description: Uptake ratio in MATE2K-overexpressing HEK293 cells vs empty vector (2.5 μM, 1 min, HPLC-MS/MS)
Type: cell-based
run-parameters: uptake ratio MATE2K-overexpressing vs empty-vector HEK293 cells, 2.5 μM, 1 min; mean
measured-attribute: MATE2

[
  {
    "compound": "Br.Cc1ncc(C[n+]2cccc(CCO)c2C)c(N)n1.[Br-]",
    "recorded-number": 7.32
  },
  {
    "compound": "CC[C@@H]1CN(C(=O)NCC(F)(F)F)C[C@@H]1c1cnc2cnc3[nH]ccc3n12",
    "recorded-number": 1.27
  },
  {
    "compound": "C#CCN[C@@H]1CCc2ccccc21 [Rasagiline (S), Rasagiline]",
    "recorded-number": 1.46
  },
  {
    "compound": "CCN(CC)CCNC(=O)c1ccc(NS(C)(=O)=O)cc1 [Sematilide]",
    "recorded-number": 6.42
  },
  {
    "compound": "CC(C)(C)NCC(O)c1cc(O)cc(O)c1 (centres unmarked)",
    "recorded-number": 7.04
  }
]

---

test-target: MATE1 (Homo sapiens, UniProt Q96FL8)
Sequence (Q96FL8 whole entry): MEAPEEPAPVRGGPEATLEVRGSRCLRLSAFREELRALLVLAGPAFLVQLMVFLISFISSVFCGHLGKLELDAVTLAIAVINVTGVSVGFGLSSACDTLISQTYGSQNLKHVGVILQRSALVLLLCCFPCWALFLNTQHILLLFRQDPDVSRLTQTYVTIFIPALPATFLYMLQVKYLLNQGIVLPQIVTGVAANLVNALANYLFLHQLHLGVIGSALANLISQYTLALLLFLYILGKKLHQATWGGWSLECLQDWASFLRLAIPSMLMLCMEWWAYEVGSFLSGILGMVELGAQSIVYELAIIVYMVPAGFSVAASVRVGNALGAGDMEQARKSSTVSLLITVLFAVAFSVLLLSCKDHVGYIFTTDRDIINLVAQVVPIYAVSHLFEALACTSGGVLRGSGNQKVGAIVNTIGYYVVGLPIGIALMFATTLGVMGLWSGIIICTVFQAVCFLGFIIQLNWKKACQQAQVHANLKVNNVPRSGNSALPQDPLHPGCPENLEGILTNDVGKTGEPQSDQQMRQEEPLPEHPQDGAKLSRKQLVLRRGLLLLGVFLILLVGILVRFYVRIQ
experiment-description: Uptake ratio in MATE1-overexpressing HEK293 cells vs empty vector (2.5 μM, 1 min, HPLC-MS/MS)
Format: cell-based
run-parameters: fold uptake over empty vector, 2.5 μM, 1 min
# MATE1 ratio annotations
measured-attribute: MATE1 ratio

[
  {
    "molecule": "CN(C)c1ccc(C(=C2C=CC(=[N+](C)C)C=C2)c2ccc(N(C)C)cc2)cc1",
    "measured-attribute": "MATE1 ratio",
    "recorded-number": 1.40
  },
  {
    "molecule": "CCS(=O)(=O)N1CC(CC#N)(n2cc(-c3ncnc4[nH]ccc34)cn2)C1",
    "measured-attribute": "MATE1 ratio",
    "recorded-number": 0.82
  },
  {
    "molecule": "CC(C)[N+](C)(CCOC(=O)C1c2ccccc2Oc2ccccc21)C(C)C",
    "measured-attribute": "MATE1 ratio",
    "recorded-number": 10.16
  },
  {
    "molecule": "CC(=O)Nc1ccc(O)cc1",
    "measured-attribute": "MATE1 ratio",
    "recorded-number": 1.00
  },
  {
    "molecule": "COc1ccccc1OCC(O)CN1CCN(CC(=O)Nc2c(C)cccc2C)CC1 (centres unmarked)",
    "measured-attribute": "MATE1 ratio",
    "recorded-number": 1.11
  },
  {
    "molecule": "CCOC(=O)C1=C[C@@H](OC(CC)CC)[C@H](NC(C)=O)[C@@H](N)C1",
    "measured-attribute": "MATE1 ratio",
    "recorded-number": 1.18
  },
  {
    "molecule": "CC[C@H]1OC(=O)[C@H](C)[C@@H](O[C@H]2C[C@@](C)(OC)[C@@H](O)[C@H](C)O2)[C@H](C)[C@@H](O[C@@H]2O[C@H](C)C[C@H](N(C)C)[C@H]2O)[C@](C)(OC)C[C@@H](C)C(=O)[C@H](C)[C@@H](O)[C@]1(C)O",
    "measured-attribute": "MATE1 ratio",
    "recorded-number": 1.21
  },
  {
    "molecule": "OC(CCN1CCCCC1)(c1ccccc1)c1ccccc1",
    "measured-attribute": "MATE1 ratio",
    "recorded-number": 1.18
  },
  {
    "molecule": "OCCN1CCN(CCCN2c3ccccc3Sc3ccc(C(F)(F)F)cc32)CC1",
    "measured-attribute": "MATE1 ratio",
    "recorded-number": 1.26
  },
  {
    "molecule": "CC[C@@H](C(N)=O)N1CCCC1=O",
    "measured-attribute": "MATE1 ratio",
    "recorded-number": 1.19
  },
  {
    "molecule": "COc1ccccc1OCCNCC(O)COc1cccc2[nH]c3ccccc3c12 [Carvedilol (R), Carvedilol]",
    "measured-attribute": "MATE1 ratio",
    "recorded-number": 1.17
  },
  {
    "molecule": "C[N+]1(C)CCC[C@H]1C(=O)[O-] [Stachydrine]",
    "measured-attribute": "MATE1 ratio",
    "recorded-number": 0.83
  },
  {
    "molecule": "CNS(=O)(=O)CCc1ccc2[nH]cc(C3CCN(C)CC3)c2c1",
    "measured-attribute": "MATE1 ratio",
    "recorded-number": 10.81
  },
  {
    "molecule": "CC[C@@H](CO)NCCN[C@@H](CC)CO",
    "measured-attribute": "MATE1 ratio",
    "recorded-number": 14.14
  },
  {
    "molecule": "C[C@@H](O)[C@H]1C(=O)N2C(C(=O)O)=C(S[C@@H]3CN[C@H](C(=O)N(C)C)C3)[C@H](C)[C@H]12",
    "measured-attribute": "MATE1 ratio",
    "recorded-number": 1.32
  },
  {
    "molecule": "CC(C)(C)NCC(O)c1ccc(O)c(CO)n1 (centres unmarked)",
    "measured-attribute": "MATE1 ratio",
    "recorded-number": 12.66
  },
  {
    "molecule": "C#CCN[C@@H]1CCc2ccccc21 [Rasagiline (S), Rasagiline]",
    "measured-attribute": "MATE1 ratio",
    "recorded-number": 1.46
  },
  {
    "molecule": "CC(C)(C)NCC(O)COc1cccc2c1CC(O)C(O)C2 (centres unmarked)",
    "measured-attribute": "MATE1 ratio",
    "recorded-number": 9.41
  },
  {
    "molecule": "NCCc1c[nH]c2ccc(O)cc12",
    "measured-attribute": "MATE1 ratio",
    "recorded-number": 12.11
  },
  {
    "molecule": "OCCc1ccccc1",
    "measured-attribute": "MATE1 ratio",
    "recorded-number": 1.39
  },
  {
    "molecule": "NCCC(=O)N[C@@H](Cc1cnc[nH]1)C(=O)O",
    "measured-attribute": "MATE1 ratio",
    "recorded-number": 0.18
  },
  {
    "molecule": "Nc1ncn([C@H]2C[C@H](O)[C@@H](CO)O2)c(=O)n1",
    "measured-attribute": "MATE1 ratio",
    "recorded-number": 1.13
  },
  {
    "molecule": "CC(C)N(CCC(C(N)=O)(c1ccccc1)c1ccccn1)C(C)C (centres unmarked) [Disopyramide]",
    "measured-attribute": "MATE1 ratio",
    "recorded-number": 1.26
  },
  {
    "molecule": "C=CCN1CC[C@]23c4c5ccc(O)c4O[C@H]2C(=O)CC[C@@]3(O)[C@H]1C5",
    "measured-attribute": "MATE1 ratio",
    "recorded-number": 1.36
  },
  {
    "molecule": "OCCN1CCN(CCCN2c3ccccc3Sc3ccc(Cl)cc32)CC1",
    "measured-attribute": "MATE1 ratio",
    "recorded-number": 1.09
  },
  {
    "molecule": "NCC(O)c1cccc(O)c1 (centres unmarked)",
    "measured-attribute": "MATE1 ratio",
    "recorded-number": 26.13
  },
  {
    "molecule": "Nc1cccc2c1CN(C1CCC(=O)NC1=O)C2=O (centres unmarked) [Lenalidomide]",
    "measured-attribute": "MATE1 ratio",
    "recorded-number": 1.78
  },
  {
    "molecule": "CCC(NC(C)C)C(O)c1ccc(O)c(O)c1 (centres unmarked)",
    "measured-attribute": "MATE1 ratio",
    "recorded-number": 5.65
  },
  {
    "molecule": "C[C@]12CC[C@@H]3c4ccc(OS(=O)(=O)O)cc4CC[C@H]3[C@@H]1CCC2=O [Estrone-3-sulfate]",
    "measured-attribute": "MATE1 ratio",
    "recorded-number": 4.80
  },
  {
    "molecule": "CC(C)Nc1cccnc1N1CCN(C(=O)c2cc3cc(NS(C)(=O)=O)ccc3[nH]2)CC1",
    "measured-attribute": "MATE1 ratio",
    "recorded-number": 1.19
  },
  {
    "molecule": "CCN1CCN(Cc2ccc(Nc3ncc(F)c(-c4cc(F)c5nc(C)n(C(C)C)c5c4)n3)nc2)CC1",
    "measured-attribute": "MATE1 ratio",
    "recorded-number": 1.06
  }
]

---

test-target: MATE2K (Homo sapiens)
Sequence (Q86VL8 1-566 isoform Q86VL8-3): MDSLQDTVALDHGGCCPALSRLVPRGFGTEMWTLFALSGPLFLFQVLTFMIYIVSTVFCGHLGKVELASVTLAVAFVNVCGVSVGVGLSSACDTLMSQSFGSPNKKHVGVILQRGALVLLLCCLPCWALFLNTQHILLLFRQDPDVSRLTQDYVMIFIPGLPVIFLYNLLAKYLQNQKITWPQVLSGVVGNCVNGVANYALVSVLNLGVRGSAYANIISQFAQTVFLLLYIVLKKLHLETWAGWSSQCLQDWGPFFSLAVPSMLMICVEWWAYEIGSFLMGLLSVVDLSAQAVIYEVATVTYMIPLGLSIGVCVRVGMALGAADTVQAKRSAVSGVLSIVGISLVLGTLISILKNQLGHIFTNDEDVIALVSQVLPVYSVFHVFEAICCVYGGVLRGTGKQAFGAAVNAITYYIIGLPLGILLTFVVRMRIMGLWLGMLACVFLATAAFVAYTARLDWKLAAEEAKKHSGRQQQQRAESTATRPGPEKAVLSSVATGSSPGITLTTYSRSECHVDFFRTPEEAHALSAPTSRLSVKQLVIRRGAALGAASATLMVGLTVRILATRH
experiment-description: Uptake ratio in MATE2K-overexpressing HEK293 cells vs empty vector (2.5 μM, 1 min, HPLC-MS/MS)
Format: cell-based
run-parameters: fold uptake over empty vector, 2.5 μM, 1 min
Each record's MATE2K ratio is compared with low-valued (below 1), mid-valued (1 to below 5), high-valued (5 or more) to give its class.

[
  {
    "molecule": "CNCc1ccc(CSCCN/C(=C/[N+](=O)[O-])NC)o1",
    "assigned-label": "high-valued"
  },
  {
    "molecule": "CC(C)NCC(O)c1ccc(O)c(O)c1 (stereo not shown)",
    "assigned-label": "mid-valued"
  },
  {
    "molecule": "CC1(C)N=C(N)N=C(N)N1c1ccc(Cl)cc1",
    "assigned-label": "high-valued"
  },
  {
    "molecule": "Nc1cccc2c1CN(C1CCC(=O)NC1=O)C2=O (stereo not shown) [Lenalidomide]",
    "assigned-label": "mid-valued"
  },
  {
    "molecule": "CCNCC(O)c1cccc(O)c1 (stereo not shown)",
    "assigned-label": "mid-valued"
  },
  {
    "molecule": "CN(CCN1CCC(OC(=O)Nc2ccccc2-c2ccccc2)CC1)C(=O)c1ccc(CN2CCC(C(N)=O)CC2)cc1",
    "assigned-label": "mid-valued"
  },
  {
    "molecule": "CCCCC[C@H](O)/C=C/[C@@H]1[C@@H](C/C=C\\CCCC(=O)O)[C@@H](O)C[C@H]1O",
    "assigned-label": "low-valued"
  },
  {
    "molecule": "CC(=O)Nc1ccc(OCC(O)CNC(C)C)cc1 (stereo not shown)",
    "assigned-label": "high-valued"
  },
  {
    "molecule": "Cc1ccc(C(=O)Oc2ccc(C(O)CNC(C)(C)C)cc2OC(=O)c2ccc(C)cc2)cc1 (stereo not shown)",
    "assigned-label": "low-valued"
  }
]
